// % Rmax, binding to hCD32a-R131 lookup, one value per entry
Molecular target: T1, CD32a-R131 (FcgRIIa-R131) (Homo sapiens, UniProt P12318, H167R)
T1 sequence (P12318 34-217 H167R limits assumed): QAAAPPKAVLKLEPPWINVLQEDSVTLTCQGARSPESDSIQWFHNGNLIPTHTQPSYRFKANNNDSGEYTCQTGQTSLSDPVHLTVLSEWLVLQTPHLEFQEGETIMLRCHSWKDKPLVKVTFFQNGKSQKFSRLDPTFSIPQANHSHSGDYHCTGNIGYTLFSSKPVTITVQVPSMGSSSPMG
Experiment: SPR binding to FcgR-his: CD32a-R131
Details: 1 μM antibody, anti-his Fab captured FcgR-his
endpoint label: % Rmax, binding to hCD32a-R131 (%)

[[record]]
molecule = "mAb8-IgG2.3G1-AY-V27 (protein, left off: another chain or arm of the molecule) constant: ASTKGPSVFPLAPCSRSTSESTAALGCLVKDYFPEPVTVSWNSGALTSGVHTFPAVLQSSGLYSLSSVVTVPSSNFGTQTYTCNVDHKPSNTKVDKTVERKSCVECPPCPAPELLGGPSVFLFPPKPKDTLMISRTPEVTCVVVDVEHEDPEVKFNWYVDGVEVHNAKTKPREEQYNSTYRVVSVLTVLHQDWLNGKEYKCKVSNKALPAPIEKTISKAKGQPREPQVYTLPPSREEMTKNQVSLTCLVKGFYPSDIAVEWESNGQPENNYKTTPPVLDSDGSFFLYSKLTVDKSRWQQGNVFSCSVMHEALHNHYTQKSLSLSPGK"
test_value = 80

[[record]]
molecule = "mAb5-IgG2.5 (protein, left off: another chain or arm of the molecule) constant: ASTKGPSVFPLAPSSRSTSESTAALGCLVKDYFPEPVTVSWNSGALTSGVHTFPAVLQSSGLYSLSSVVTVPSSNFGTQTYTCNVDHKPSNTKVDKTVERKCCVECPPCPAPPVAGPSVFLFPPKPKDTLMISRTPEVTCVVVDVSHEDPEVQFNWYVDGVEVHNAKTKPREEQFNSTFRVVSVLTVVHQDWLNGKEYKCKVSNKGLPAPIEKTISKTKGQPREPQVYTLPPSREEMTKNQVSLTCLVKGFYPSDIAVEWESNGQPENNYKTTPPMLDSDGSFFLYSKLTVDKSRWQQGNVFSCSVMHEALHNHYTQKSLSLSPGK"
test_value = 26

[[record]]
molecule = "mAb8-IgG2.5G1-AY-V27 (protein, left off: another chain or arm of the molecule) constant: ASTKGPSVFPLAPSSRSTSESTAALGCLVKDYFPEPVTVSWNSGALTSGVHTFPAVLQSSGLYSLSSVVTVPSSNFGTQTYTCNVDHKPSNTKVDKTVERKCCVECPPCPAPELLGGPSVFLFPPKPKDTLMISRTPEVTCVVVDVEHEDPEVKFNWYVDGVEVHNAKTKPREEQYNSTYRVVSVLTVLHQDWLNGKEYKCKVSNKALPAPIEKTISKAKGQPREPQVYTLPPSREEMTKNQVSLTCLVKGFYPSDIAVEWESNGQPENNYKTTPPVLDSDGSFFLYSKLTVDKSRWQQGNVFSCSVMHEALHNHYTQKSLSLSPGK"
test_value = 79

[[record]]
molecule = "mAb7-IgG2.5G1-AY-V27 (protein, left off: another chain or arm of the molecule) constant: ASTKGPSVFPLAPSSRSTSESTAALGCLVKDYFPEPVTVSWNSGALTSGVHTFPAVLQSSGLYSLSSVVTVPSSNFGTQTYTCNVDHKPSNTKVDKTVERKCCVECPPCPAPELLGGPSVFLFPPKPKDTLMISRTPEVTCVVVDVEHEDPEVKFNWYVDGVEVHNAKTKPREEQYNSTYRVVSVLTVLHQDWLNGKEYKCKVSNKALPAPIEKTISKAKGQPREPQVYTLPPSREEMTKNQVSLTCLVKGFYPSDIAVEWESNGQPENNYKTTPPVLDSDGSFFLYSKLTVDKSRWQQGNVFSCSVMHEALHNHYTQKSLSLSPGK"
test_value = 89

